# pEC50 per record follows
System: T. cruzi trypomastigotes (Y strain)
Test: MTT reduction viability assay on isolated trypomastigotes
Assay type: cell-based, Trypanosoma cruzi
Conditions: Trypanosoma cruzi; Y strain, 24 hours exposure, MTT assay, mean ± SD; read-out: EC50 T. cruzi trypomastigote
The quantity pEC50 is defined as the negative base-10 logarithm of the molar concentration.

Consider the worked cases shown below.
| compound | pEC50 |
| --- | --- |
| O=C(OCCCCCCCCCCC[P+](c1ccccc1)(c1ccccc1)c1ccccc1)c1cc(O)c(O)c(O)c1.[Br-] | 5.04 |
| O=C(OCCCCCCCCCC[P+](c1ccccc1)(c1ccccc1)c1ccccc1)c1cc(O)c(O)c(O)c1.[Br-] | 6.00 |
| O=C(OCCCCCCCCCCCC[P+](c1ccccc1)(c1ccccc1)c1ccccc1)c1cc(O)c(O)c(O)c1.[Br-] | 6.00 |
| CC1CS(=O)(=O)CCN1/N=C/c1ccc([N+](=O)[O-])o1 (centres unmarked) [Nifurtimox, reference compound] | 5.39 |

-- ask Recall and state the measured pEC50 for O=C(OCCCCCCCC[P+](c1ccccc1)(c1ccccc1)c1ccccc1)c1cc(O)c(O)c(O)c1.[Br-] .
-- reply 5.32
